Values from patent US9802941B2

Quick reference: pIC50 of the listed items.
Molecular target: KDM5B (PLU-1) (Homo sapiens, UniProt Q9UGL1)
Construct: BRIC; 1-809; E. coli; host or cells: E. coli
Sequence (Q9UGL1 1-809): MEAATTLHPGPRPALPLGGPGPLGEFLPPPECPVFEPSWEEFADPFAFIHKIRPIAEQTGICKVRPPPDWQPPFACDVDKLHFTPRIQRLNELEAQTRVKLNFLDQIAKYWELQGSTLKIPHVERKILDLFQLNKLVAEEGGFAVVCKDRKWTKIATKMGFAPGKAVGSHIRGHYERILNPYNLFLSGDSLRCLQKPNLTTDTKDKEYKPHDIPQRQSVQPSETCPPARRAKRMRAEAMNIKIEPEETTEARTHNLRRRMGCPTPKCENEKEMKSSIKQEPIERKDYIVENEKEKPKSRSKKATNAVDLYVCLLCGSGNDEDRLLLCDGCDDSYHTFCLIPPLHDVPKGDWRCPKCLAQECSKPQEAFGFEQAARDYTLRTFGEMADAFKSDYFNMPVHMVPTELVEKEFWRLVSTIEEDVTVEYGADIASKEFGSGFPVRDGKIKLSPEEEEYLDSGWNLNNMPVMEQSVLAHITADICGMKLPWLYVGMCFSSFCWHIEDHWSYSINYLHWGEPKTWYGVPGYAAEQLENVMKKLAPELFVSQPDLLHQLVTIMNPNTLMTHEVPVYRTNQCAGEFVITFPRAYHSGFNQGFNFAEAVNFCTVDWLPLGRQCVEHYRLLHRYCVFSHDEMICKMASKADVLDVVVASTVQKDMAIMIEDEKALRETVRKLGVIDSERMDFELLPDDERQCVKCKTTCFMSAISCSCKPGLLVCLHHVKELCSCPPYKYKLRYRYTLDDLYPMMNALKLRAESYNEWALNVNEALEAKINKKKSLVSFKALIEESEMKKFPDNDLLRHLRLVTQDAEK
Assay: Histone lysine demethylase AlphaLISA assay, KDM5B
Assay type: biochemical
Settings: AlphaLISA, in vitro; read-out: HDME Inhibition KDM5B
pIC50: −log10 of the molar value.

Cc1nnc(CNCc2cc(C(=O)O)cc(CO)n2)n1Cc1ccc(F)cc1 yielded pIC50 of < 5.00

CCc1nnc(CNCc2cc(C(=O)O)cc(C)n2)n1C/C=C/c1ccccc1 yielded pIC50 of < 5.00

CCOc1ccc(CC(C)C)c(CNCc2cc(C(=O)O)cc(CO)n2)n1 yielded pIC50 of 5.21

CC(C)C[C@@H](CO)NCc1cc(C(=O)O)cc(CO)n1 yielded pIC50 of < 5.00

CC#CCc1cnc(CNCc2cc(C(=O)O)cc(C)n2)n1Cc1ccc(F)cc1 yielded pIC50 of < 5.00

Cc1cc(C(=O)O)cc(CNCc2nccn2Cc2ccc(F)cc2)n1 yielded pIC50 of < 5.00

Cc1cc(C(=O)O)cc(CNCc2nnc(C)n2Cc2ccc(F)cc2)n1 yielded pIC50 of < 5.00

CCc1nnc(CNCc2cc(C(=O)O)cc(CO)n2)n1CCCc1ccccc1 yielded pIC50 of < 5.00

Cc1cc(C(=O)O)cc(CN[C@H]2CCc3cccnc32)n1 yielded pIC50 of 5.91

Cc1ccc(OCCC(C)C)c(CCNCc2cc(C(=O)O)cc(C)n2)c1 yielded pIC50 of < 5.00

###

Target: KDM2B (FBXL10) (Homo sapiens, UniProt Q8NHM5)
Construct: KDM2B; BPS,; 1-650; Bac; purchased BPS Bioscience, US; host or cells: baculovirus system
Sequence (Q8NHM5 1-650): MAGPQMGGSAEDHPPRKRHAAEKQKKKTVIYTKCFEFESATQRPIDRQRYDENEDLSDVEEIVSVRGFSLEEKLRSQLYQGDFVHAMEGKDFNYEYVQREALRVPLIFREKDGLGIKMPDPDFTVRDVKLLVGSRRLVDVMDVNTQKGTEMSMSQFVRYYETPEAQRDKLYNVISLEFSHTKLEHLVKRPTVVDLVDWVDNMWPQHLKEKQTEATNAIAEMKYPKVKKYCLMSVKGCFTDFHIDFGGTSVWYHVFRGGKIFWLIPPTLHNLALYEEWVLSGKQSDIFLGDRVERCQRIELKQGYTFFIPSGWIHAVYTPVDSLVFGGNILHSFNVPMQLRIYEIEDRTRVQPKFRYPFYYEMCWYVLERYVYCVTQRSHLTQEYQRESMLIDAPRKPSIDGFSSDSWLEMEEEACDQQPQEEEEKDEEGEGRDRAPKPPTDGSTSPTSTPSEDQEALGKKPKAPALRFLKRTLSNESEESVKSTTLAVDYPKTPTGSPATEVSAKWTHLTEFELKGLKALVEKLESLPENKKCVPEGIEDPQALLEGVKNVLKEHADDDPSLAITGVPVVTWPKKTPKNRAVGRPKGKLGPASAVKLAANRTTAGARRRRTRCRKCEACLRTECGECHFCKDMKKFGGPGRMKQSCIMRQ
Test: Histone lysine demethylase AlphaLISA assay, KDM2B
Assay type: biochemical
Conditions: AlphaLISA, in vitro; read-out: HDME Inhibition KDM2B
pIC50: −log10 of the molar value.
Readout kind: pIC50

Some solved cases for reference:
{"Compound": "CCc1cc(C(=O)O)cc(CNCc2nccn2Cc2ccc(F)cc2)n1 [Compound 13]", "Measured number": 5.64}
{"Compound": "Cc1cc(C(=O)O)cc(CNCc2ncc(C3CCC3)n2Cc2ccc(F)cc2)n1 [Compound 39]", "Measured number": 6.81}
{"Compound": "CCC(C)Cc1cnc(CNCc2cc(C(=O)O)cc(C)n2)n1Cc1ccc(F)cc1 (stereo not shown) [Compound 30]", "Measured number": 6.15}

(A) C/C=C/c1cnc(CNCc2cc(C(=O)O)cc(C)n2)n1Cc1ccc(F)cc1 [Compound 42]
(B) COc1ccc(OCCc2ccccc2)c(CNCc2cc(C(=O)O)cc(C)n2)n1 [Compound 104]
(C) Cc1cc(OCc2ccccc2)c(CCNCc2cc(C(=O)O)cc(CO)n2)nn1 [Compound 87]
In: # ascending order, key=pIC50 To answer, arrange all of the labels according to the requested order.
Out: C, A, B
